# Tgt: human mAChR M4 (Homo sapiens, UniProt P08173)
# Sequence (P08173 whole entry): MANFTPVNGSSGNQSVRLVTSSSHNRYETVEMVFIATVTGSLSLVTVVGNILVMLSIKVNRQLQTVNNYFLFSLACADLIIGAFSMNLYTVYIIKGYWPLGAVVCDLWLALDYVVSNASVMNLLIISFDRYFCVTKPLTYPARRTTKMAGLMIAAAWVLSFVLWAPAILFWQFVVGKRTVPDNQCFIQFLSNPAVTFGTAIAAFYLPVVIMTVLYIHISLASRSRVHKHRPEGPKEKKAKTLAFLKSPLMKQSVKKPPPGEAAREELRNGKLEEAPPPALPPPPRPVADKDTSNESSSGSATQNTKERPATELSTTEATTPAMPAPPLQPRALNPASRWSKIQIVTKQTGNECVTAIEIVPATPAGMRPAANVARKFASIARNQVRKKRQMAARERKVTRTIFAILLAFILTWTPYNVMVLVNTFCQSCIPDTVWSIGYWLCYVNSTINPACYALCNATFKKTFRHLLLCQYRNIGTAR
# Assay explanation: mAChR M4 cell-based functional assay (calcium flux), human M4
# Assay setup: Table 10; % ACh maximum at 30 μM
Structures can show the parent of a compound that is named as a salt.
Labelling field: enter yes if recorded Emax is less than 80%. Enter no if it equals or exceeds that cut-off.

Exercise: In the record for Cc1nc2sc3c(NCc4cccc(C5(O)CCC5)c4)ncnc3c2c(C)c1Cl , is Emax less than 80%?
Solution: yes

Exercise: Would you mind doing Cc1cc(C)c2c(n1)sc1c(N3CCC3)ncnc12 as well?
Solution: yes

Exercise: Would you mind doing Cc1nc2sc3c(NCc4ccc(C5(O)CCC5)cc4)ncnc3c2c(C)c1Cl as well?
Solution: yes

Exercise: Would you mind doing CCC(C)(O)c1ccc(CNc2ncnc3c2sc2nnc(C)c(C)c23)cc1 (centres unmarked) as well?
Solution: yes

Exercise: Would you mind doing Cc1nnc2sc3c(NCc4ccc(Oc5ccccn5)cc4)ncnc3c2c1C [Compound 110, hydrochloride] as well?
Solution: yes

Exercise: Would you mind doing Cc1nnc2sc3c(NCc4ccc(-c5cccnc5F)cc4)ncnc3c2c1C as well?
Solution: no

Exercise: Would you mind doing Cc1nnc2sc3c(NCc4ccc(CN5CCCC5C(C)(C)O)cc4)ncnc3c2c1C (centres unmarked) as well?
Solution: no

Exercise: Would you mind doing Cc1nnc2sc3c(NCc4ccc(F)c(C(=O)NC(C)C)c4)ncnc3c2c1C as well?
Solution: no

Exercise: Would you mind doing Cc1nnc2sc3c(NC(C)c4ccc(C(C)(C)O)cc4)ncnc3c2c1C (centres unmarked) as well?
Solution: yes

Exercise: Would you mind doing Cc1nnc2sc3c(NCc4ccc(C(C)(C)O)c(F)c4)ncnc3c2c1C as well?
Solution: yes

Exercise: Would you mind doing Cc1nnc2sc3c(NCc4ccc(C(=O)NC5CCCCC5)cc4)ncnc3c2c1C as well?
Solution: no

Exercise: Would you mind doing Cc1nnc2sc3c(NCc4ccc(F)c(C(=O)NC5CC5)c4)ncnc3c2c1C as well?
Solution: no

Exercise: Would you mind doing Cc1nnc2sc3c(NCc4ccc(C(=O)N5CC6CC6C5)cc4)ncnc3c2c1C (centres unmarked) as well?
Solution: no

Exercise: Would you mind doing Cc1nnc2sc3c(N4CC(C(N)=O)C4)ncnc3c2c1C as well?
Solution: yes

Exercise: Would you mind doing Cc1c(Cl)cnc2sc3c(NCc4ccc(C(=O)N(C)C)cc4)ncnc3c12 as well?
Solution: yes

Exercise: Would you mind doing Cc1nnc2sc3c(NCc4ccc(C(C)(C)O)cc4Cl)ncnc3c2c1C as well?
Solution: no
